Recorded growth inhibition by entry
# METHOD DESCRIPTION: inhibition of 3D7 malaria parasite growth – strain 3D7 (AID 2306);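 further: 0% = DMSO wells and 100% = chloroquine plus artemisinin control wells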
# TEST PARAMETERS: P. falciparum 3D7 erythrocytic growth, LDH absorbance, 72 h; at 2 µM; active compounds read high
Field format: number, assumed %, no unit text.

>  <MOLECULE>
OCCNc1nc(Nc2cccc(O)c2)nc2ccccc12

>  <growth inhibition [%]>
96

$$$$
>  <MOLECULE>
O=C(Nc1ccc(OC2CCN(Cc3ccc(F)cc3)C2)c(Cl)c1)c1cccs1 (centres undefined)

>  <growth inhibition [%]>
98

$$$$
>  <MOLECULE>
O=C(Cc1cccnc1)N(Cc1ccc(-c2ccc(CNCc3cccnc3)cn2)cc1)C1CCN(Cc2ccccc2)CC1

>  <growth inhibition [%]>
93

$$$$
>  <MOLECULE>
Oc1ccc2[nH]c(-c3cccc(F)c3)nc2c1CN1CCCC1

>  <growth inhibition [%]>
100

$$$$
>  <MOLECULE>
N#Cc1ccc(CN2CCC(Oc3ccc(NC(=O)c4cccs4)cc3)C2)cc1 (centres undefined)

>  <growth inhibition [%]>
82

$$$$

growth inhibition for COc1cc2c(cc1COc1ccccc1)CCN1Cc3cc(OC)c(OC)cc3CC21 (centres undefined) ? 99

Which measured growth inhibition value corresponds to O=C(/C=C/c1ccc(-c2ccccc2)cc1)NCCCCCN1CCC(c2c[nH]c3ccccc23)CC1 ? 97

Form field: reported growth inhibition of Cc1ccc(NC(=O)Nc2ccc(Cl)cc2)cc1-c1ccc(C(=O)Nc2ccncc2)cc1 99

Would you kindly share the measured growth inhibition for Cc1ccc(NC(=O)c2cccc(CN3CCCN(Cc4cccc(O)c4)CC3)c2)cc1F ? 99

----------
# ASSAY SYSTEM: L-lactate dehydrogenase (Plasmodium falciparum (isolate CDC / Honduras))
# METHOD DESCRIPTION: PfLDH activity inhibition – cell lysate, 3D7 strain, counter-screen for P. falciparum growth inhibition project (AID 2304);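 further: 0% = vehicle and 100% = reference inhibitor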
# TEST PARAMETERS: P. falciparum 3D7 crude extract, LDH APAD/NBT absorbance; at 2 µM; active compounds read high
METRIC NAME: inhibition (%)
Dear colleague, please return just the value in %, with no unit written.

>  <MOLECULE>
COc1ccc(NC(=O)[C@H](CC(C)C)Nc2cc(C)nc(NCc3cccc(C)c3)n2)cc1

>  <METRIC NAME>
inhibition

>  <TEST RESULT>
-1

$$$$
>  <MOLECULE>
Cc1cn(CC(=O)Nc2cccc(-c3cccc(-c4nc5ccc(C(F)(F)F)cc5[nH]4)c3)c2)c(=O)[nH]c1=O

>  <METRIC NAME>
inhibition

>  <TEST RESULT>
-1

$$$$
>  <MOLECULE>
OC1CCCN(Cc2ccc(-c3ccc(-c4nc5ccccc5[nH]4)cc3)cc2)C1 (stereo unspecified)

>  <METRIC NAME>
inhibition

>  <TEST RESULT>
-4

$$$$
>  <MOLECULE>
Cc1ccccc1C1CCN(C2CCC(NC(=O)C3=Cc4cc(Cl)ccc4OC3)CC2)CC1 (stereo unspecified)

>  <METRIC NAME>
inhibition

>  <TEST RESULT>
0

$$$$
>  <MOLECULE>
CS(=O)(=O)c1ccc(CNCc2ccc(-c3ccc(-c4nc5ccc(C(F)(F)F)cc5[nH]4)cc3)cc2)cc1

>  <METRIC NAME>
inhibition

>  <TEST RESULT>
3

$$$$

Below: the item to evaluate.
For the molecule shown here, COc1ccc(NC(=O)Nc2ccc(C)c(-c3ccc(C(=O)Nc4ccncc4)cc3)c2)cc1 , give the reported inhibition. 4

// data source = PubChem BioAssay
